Tested Target: T1, UNK ZnF1-6 (called full-length) (human, UniProt Q9C0B0 30-357)
T1 sequence: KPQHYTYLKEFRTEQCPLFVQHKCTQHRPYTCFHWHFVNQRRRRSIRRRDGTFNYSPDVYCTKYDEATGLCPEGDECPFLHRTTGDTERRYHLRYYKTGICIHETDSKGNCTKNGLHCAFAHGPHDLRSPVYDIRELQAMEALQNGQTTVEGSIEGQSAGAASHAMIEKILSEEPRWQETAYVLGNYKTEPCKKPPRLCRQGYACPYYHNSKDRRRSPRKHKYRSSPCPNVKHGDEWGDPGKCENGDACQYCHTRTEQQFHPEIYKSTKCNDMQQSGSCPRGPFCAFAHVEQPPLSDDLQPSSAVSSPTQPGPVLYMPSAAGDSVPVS
Test Name: nsRBNS (natural sequence RNA bind-n-seq); RBNS binding buffer (assumed for nsRBNS): 25 mM Tris pH 7.5, 150 mM KCl, 3 mM MgCl2, 0.01% Triton X-100, 500 ug/ml BSA, 20 U/ml SUPERase-In, 4 C; UNK is unkempt and MSI1 is Musashi-1; names of the RNAs are library labels; protein concentration not given here; high values mean tight binding
Whole data set: some 5,800 sequences, median “enrichment r” near 0.68, cut for the highest 2% near 11. The sample holds the highest values, similar sequences and a random draw of the others, so the mix is not that of the screen.
Property Name: binding signal (enrichment R)
Write the value in enrichment R as a bare number.

Using the record for chr1:203709306:203709407:+|CDS|ENSG00000058668|msi1|total|mutant (ssRNA) RNA: GGGAGUUCUACAGUCCGACGAUCUCCAGAGAAGGAGGGAGGCCUGCCUCGGCAGGUGGGCAACAAGACCGAGUGUGCUCUGCCCGGCUUUGUCACAGAUCUGAAGCAGGAUUAUCAGGCUGUGCGUAAUGAAGUGCCCGAGGACAACAGAGGAUUGAGCAUCA , report its binding signal.
0.691

Try the binder chr18:9400975:9401076:+|3pUTR|ENSG00000128791|msi1|FALSE|unique (ssRNA) RNA: GGGAGUUCUACAGUCCGACGAUCUAUAAAAAUAGAUAAUGCUCUUGGACACAUUUUGUAUUAUUCAUGAUCUGAAUAGUAGUUAGUUAAAAGAUCAUUUGUAAUAUUAUGAUCAACUGUUAUAAAUUAAGGUCUUAAUACCUUCAACAGAGGAUUGAGCAUCA
2.18

Can you handle chr3:46835109:46836203:-|three_prime_utr|ENSG00000160808|control|control|control (ssRNA) RNA: GGGAGUUCUACAGUCCGACGAUCUGAAGGCACAAGCUGUUCCAGUAUAAUAAAGAAAAUAAUUAAAUUAAGAAAAGUUAUACUAGAAAUAAGAUAUAGGUAUGAUUAUUAUUAAUCAUUAGUUUGUAGUAUUACUUUGUUCUACAACAGAGGAUUGAGCAUCA next?
4.03

Proceed to chr11:62152232:62152344:+|3pUTR|ENSG00000149503|unk|FALSE|unique (ssRNA) RNA: GGGAGUUCUACAGUCCGACGAUCUGCUCUGUAAAUAGUUGUUUUAAUUUAGCUGAAUGUUAGCAUUUUAGUCUUUGGCAUUUUAGCGUUUGGGAGGUAGAUUAAUAAAGUAUAUUCCUUCAAGCCUGCUGUUGAUACCAUGAACAACAGAGGAUUGAGCAUCA
110

Next entry: chr15:38352922:38353023:+|3pUTR|ENSG00000166068|msi1|total|mutant (ssRNA) RNA: GGGAGUUCUACAGUCCGACGAUCUACAUAUAAAUUUAUUUCUUUUGCAGAGCAUUAUAUUACUGGAUGUUUAAUUUACAAAACCGUUGGGUAAAUGUUCCAACAAACUUUAAAGUACCUUGAAGUCAAAUUGUCUGUUUUUGUCAACAGAGGAUUGAGCAUCA
0.824

Follow-up item: chr15:52550718:52550819:-|3pUTR|ENSG00000128989|msi1|FALSE|unique (ssRNA) RNA: GGGAGUUCUACAGUCCGACGAUCUUUAUAUAAACUUUUUAAAUGUAGAAACUUUUUACUUCCACACUCAGUUUUGGAGACCCUAGAAUAAAAGGCUUCAAUACUCUGCAUUCCAUGCCCUCUGCCACCUGCUUUUUUUUCCCCCAACAGAGGAUUGAGCAUCA
3.77

chr15:38352922:38353023:+|3pUTR|ENSG00000166068|msi1|FALSE|unique (ssRNA) RNA: GGGAGUUCUACAGUCCGACGAUCUACAUAUAAAUUUAUUUCUUUUGCAGAGCAUUAUAUUACUGGAUGUUUAAUUUACAAAAUAGUUGGGUAAAUGUUCCAACAAACUUUAAAGUACCUUGAAGUCAAAUUGUCUGUUUUUGUCAACAGAGGAUUGAGCAUCA ?
1.48

// provenance: paper PMC12136788
